Values from patent US20250144067A1

test system: NCI-H292 lung cancer cells; assay: FDA drug screening, complete media vs cholesterol-free media without statin (TABLE 1); type: cell-based, human; conditions: complete vs cholesterol-free media; […]
Where a name gives a salt, the structure may show the parent alone.
Here, each record is paired with measured Difference data.

The following molecules have reported results that may help.
molecule	Difference
CCCCCCCCC(=O)NCc1ccc(O)c(OC)c1 [Nonivamide]	−0.42
CC[C@H]1OC(=O)[C@H](C)[C@@H](O[C@H]2C[C@@](C)(OC)[C@@H](O)[C@H](C)O2)[C@H](C)[C@@H](O[C@@H]2O[C@H](C)C[C@H](N(C)C)[C@H]2O)[C@](C)(O)C[C@@H](C)C(=O)[C@H](C)[C@H]2OC(=O)O[C@@]21C	0.42
CC[C@H](C)[C@@H]1NC(=O)[C@H](Cc2ccc(O)cc2)NC(=O)[C@@H](N)CSSC[C@@H](C(=O)N2CCC[C@H]2C(=O)N[C@@H](CC(C)C)C(=O)NCC(N)=O)NC(=O)[C@H](CC(N)=O)NC(=O)[C@H](CCC(N)=O)NC1=O	−0.37
CCN(CC)C(=O)C1(c2ccccc2)CC1CN (centres unmarked) [Milnacipran (hydrochloride)]	−0.45
CCOC(=O)c1cncn1[C@H](C)c1ccccc1 [Etomidate]	−0.32

Give its Difference value. Item: CCOC(=O)CCC(=O)O[C@H]1[C@H](O[C@@H]2[C@@H](C)[C@H](O[C@H]3C[C@@](C)(OC)[C@@H](O)[C@H](C)O3)[C@@H](C)C(=O)O[C@H](CC)[C@@](C)(O)[C@H](O)[C@@H](C)C(=O)[C@H](C)C[C@@]2(C)O)O[C@H](C)C[C@@H]1N(C)C [Erythromycin Ethylsuccinate]
−0.36

Give its Difference value. Item: Cc1cc(N2CCN([C@@H]3CN[C@H](C(=O)N4CCSC4)C3)CC2)n(-c2ccccc2)n1
−0.34

Give its Difference value. Item: CNCC(=O)N[C@@H](CCCN=C(N)N)C(=O)N[C@H](C(=O)N[C@@H](Cc1ccc(O)cc1)C(=O)N[C@H](C(=O)N[C@@H](Cc1cnc[nH]1)C(=O)N1CCC[C@H]1C(=O)N[C@@H](C)C(=O)O)C(C)C)C(C)C [Saralasin (TFA)]
0.29

Give its Difference value. Item: CCn1cc(C(=O)O)c(=O)c2ccc(C)nc21
−0.36

Give its Difference value. Item: COC1=C[C@@H]2[C@@H]3Cc4ccc(OC)c(O)c4[C@]2(CCN3C)CC1=O [Sinomenine hydrochloride]
0.31

Give its Difference value. Item: N[C@@H](CCC(=O)O)C(=O)O [(S)-Glutamic acid]
0.34

----------
Here, each record is paired with measured Difference data.
test system: NCI-H292 lung cancer cells; assay: FDA drug screening, complete media vs cholesterol-free media without statin (TABLE 1); format: cell-based, human; conditions: Complete minus Cholesterol-free; greater than 0 enhanced anti-cancer activity, about 0 neutral, below 0 antagonists
Where a name gives a salt, the structure may show the parent alone.
I only need the number, thanks.

The following compounds have reported results that may help.
compound	measurement
CC(C)NC[C@H](O)COc1ccc(CCOCC2CC2)cc1 [Levobetaxolol (hydrochloride)]	−0.54
Cc1ccc(C(=O)Nc2ccc(S(=O)(=O)O)c3cc(S(=O)(=O)O)cc(S(=O)(=O)O)c23)cc1NC(=O)c1cccc(NC(=O)Nc2cccc(C(=O)Nc3cc(C(=O)Nc4ccc(S(=O)(=O)O)c5cc(S(=O)(=O)O)cc(S(=O)(=O)O)c45)ccc3C)c2)c1 [Suramin (sodium salt)]	−0.70
O=C1[C@H](CC[C@H](O)c2ccc(F)cc2)[C@@H](c2ccc(O)cc2)N1c1ccc(F)cc1	−0.66
CCCCC[C@H](O)/C=C/[C@H]1[C@H](O)CC(=O)[C@@H]1C/C=C\CCCC(=O)O [Prostaglandin E2]	−0.61
CC(C)(S)[C@@H](N)C(=O)O	−0.55

Lab note: need Difference with NCI-H292 lung cancer cells for entry CCN(c1cc(-c2ccc(CN3CCOCC3)cc2)cc(C(=O)NCc2c(C)cc(C)[nH]c2=O)c1C)C1CCOCC1 [Tazemetostat (hydrobromide)] , please look it up.
−0.47
